PROTOCOL: in vitro
CONDITION_PARAMETERS: human, hela cells, % viability
Here the recorded viability at 28.5 h, 10 µM is given for each entry.
Numbers only here, please. The scale is %.

// known answers, use as guide
Identify measured viability at 28.5 h, 10 µM associated with CCC1CCCCN1C(=O)c1cc2ccccc2s1 (stereo not drawn)
85.3

Please look at this compound and report its viability at 28.5 h, 10 µM: CC(C)(C)/N=C1/SCC(C)(/C=N\O)S1 (stereo not drawn)
98.7

Entry O=C(NC[C@H]1C[C@@H]2CC[N@]1C[C@@H]2CN1CCN(c2ncccn2)CC1)Nc1ccsc1 needs its viability at 28.5 h, 10 µM filled in; supply it.
90.3

// Input: O=C(Nc1ccncc1)OCCNC(=O)c1ccncc1 . Output its viability at 28.5 h, 10 µM only.
102

Indicate the recorded viability at 28.5 h, 10 µM value for this compound: Cc1cc(F)c(S(N)(=O)=O)cc1NC(=O)c1cccc(Br)c1
90.9

Please list viability at 28.5 h, 10 µM recorded for the compound Cc1ccc(-n2ncc3c2NC(=O)N2CCN=C32)cc1
85.5

Report viability at 28.5 h, 10 µM, nothing else, for this compound: Oc1cc2cccnc2nc1-c1ccc(OCc2ccccc2)c(F)c1
91.2

State, in one line, measured viability at 28.5 h, 10 µM of Cn1c(C(C)(C)C)cs/c1=N\NS(=O)(=O)c1ccccc1 [CBK006830B]
110

For the next question, use this compound.
Give viability at 28.5 h, 10 µM for Cn1cccc1C(=O)N[C@H]1C[C@@H]2C(=O)N[C@H]3CCN(C(=O)C4CCCC4)[C@@H]3C(=O)N2C1
97.1

###

A collection of compounds and their measured viability at 28.5 h, 10 µM
PROTOCOL: in vitro
CONDITION_PARAMETERS: human, hela cells, % viability
Value expressed in %; do not type the unit.

As a guide, the following entries are already answered.
Using known records, supply viability at 28.5 h, 10 µM for O=C(c1ccccc1)N1C[C@@H](c2ccsc2)[C@@H]2CN(Cc3ccc(Cl)cc3)CC[C@@H]21
100

Read off the recorded viability at 28.5 h, 10 µM for O=C(Nc1ccc(F)cc1)c1[nH]c2ccccc2c1NS(=O)(=O)c1ccc(Cl)c(Cl)c1Cl
86.7

Dear colleague, please send me the reported viability at 28.5 h, 10 µM for O=C(NCCN1CCOCC1)N1CCN(CCc2ccccc2)CC1 when you can.
85.5

Identify measured viability at 28.5 h, 10 µM corresponding to CCc1nn(CC(=O)NCC2CC2)c(=O)c2cc3ccsc3n12
87.8

Provide measured viability at 28.5 h, 10 µM value, entry: COC(=O)Cn1c(=O)c2c(nc3oc(C(C)(C)C)cn32)n(C)c1=O
84.5

More entries:
Specify reported viability at 28.5 h, 10 µM for the compound shown: Cc1ccc(CN2CCC3(CCCNC3=O)CC2)cc1
90.6

Please look at this compound and report its viability at 28.5 h, 10 µM: Cc1cccc(OCC(=O)Nc2ncccc2OCCCC#N)c1
90.5

For the compound CNC(=O)CCCc1[nH]nc(O)c1Cc1c(Cl)cccc1Cl , give its reported viability at 28.5 h, 10 µM.
89.4

Provide one value: measured viability at 28.5 h, 10 µM of Cc1nnsc1C(=O)Nc1ncn(CC(=O)N2CCCCCC2)n1
96.9

Supply recorded viability at 28.5 h, 10 µM for O=C(NCCCO)c1c(O)c2ccccc2[nH]c1=O here.
71.7

State its viability at 28.5 h, 10 µM for this compound: COCc1ccsc1C(=O)Nc1ncn(CC(=O)N2CCCCCC2)n1
94.9

Using the record for COc1nc(OCCNS(=O)(=O)c2ccc(C)cc2)nc(N(C)C)n1 , state its measured viability at 28.5 h, 10 µM.
117

###

# Lookup of reported viability at 28.5 h, 10 µM keyed by entry
PROTOCOL: in vitro
CONDITION_PARAMETERS: human, hela cells, % viability
Return type: number; implicit unit %.

Look over these answered cases.
Dear colleague, please send me the reported viability at 28.5 h, 10 µM for C[C@@H](c1ccccc1)n1c(=O)[nH]c2ncc(-c3ccco3)nc21 when you can.
112

Supply recorded viability at 28.5 h, 10 µM for Cc1ccc(C(C)C)c(OCc2ccc(C(=O)Nc3ccc(S(N)(=O)=O)cc3C)o2)c1 here.
96.3

Answer with the recorded viability at 28.5 h, 10 µM for the molecule listed here: CC(C)c1nccn1CC(=O)NCCOc1ccc(F)cc1
89.6

Return viability at 28.5 h, 10 µM (reported value) for this molecule: CN(Cc1cnn(C)c1)C(=O)COCc1nc2cc(F)ccc2[nH]1
94.3

Output viability at 28.5 h, 10 µM of CCC(CO)NC(=O)c1cnc(-c2cccc(C)c2)c(-c2ccc(OC)cc2)c1 (stereo not drawn)
101

Let me know recorded viability at 28.5 h, 10 µM for Cc1ccsc1CNC(=O)OCC1CCN(C)CC1 , thanks.
96.9

Others:
Tell me viability at 28.5 h, 10 µM reported for COC(=O)c1ccc(NC(=O)c2ccccc2-c2ccccc2C(=O)O)cc1
110

Supply reported viability at 28.5 h, 10 µM belonging to this molecule: O=C(NCC(CO)Cc1ccsc1)N1CCN(c2ccncc2)CC1 (stereo not drawn)
96.7

Note down viability at 28.5 h, 10 µM recorded for O=C1[C@@H]2CCCN2C(=O)c2ccccc2N1Cc1ccccc1F
93.9

###

PROTOCOL: in vitro
CONDITION_PARAMETERS: human, hela cells, % viability
# viability at 28.5 h, 10 µM per record follows
Report only the number, with the unit % understood.

Below, 2 compounds whose answers are already recorded.
Indicate the recorded viability at 28.5 h, 10 µM value for this compound: N#C/C(=C(/O)c1ccc(-c2ccc([N+](=O)[O-])cc2Cl)o1)c1nc(-c2ccc(F)cc2)cs1 [CBK266742]
91

Look up and state reported viability at 28.5 h, 10 µM for COc1nc(N)nc(C/C(=N\NC(=O)c2cccnc2)C2CC2)n1 [CBK019872]
90.9

---
# return recorded viability at 28.5 h, 10 µM for input Nc1nc2c([C@H]3C[C@@H](O)[C@@H](CO)O3)c[nH]c2c(=O)[nH]1 [CBK201194]
102

Report viability at 28.5 h, 10 µM, nothing else, for this compound: COC(=O)C1(Cc2ccccc2-c2ccncc2)CCNC1 (stereo not drawn) [CBK281435]
85.2

Check the records and state viability at 28.5 h, 10 µM for CCOc1ccc(-c2cncc(NCCc3c[nH]c4ccccc34)n2)cc1 [CBK065876]
93

Please list viability at 28.5 h, 10 µM recorded for the compound Cc1nn(-c2ccccc2)c(C)c1CNC(=O)C1C2C=CC(C2)C1C(=O)O (stereo not drawn) [CBK286877]
90.4

Let me know recorded viability at 28.5 h, 10 µM for Cc1cc(C(=O)NC2CCCOC2)c2cccc(Cl)c2n1 (stereo not drawn) [CBK282459] , thanks.
95.3

Give viability at 28.5 h, 10 µM for CC1CCN(c2ccc(C(=O)CCCO)cc2)CC1 [CBK010358]
91.8

Retrieve viability at 28.5 h, 10 µM measured for CC(C)(C)NC(=O)CCn1c(-c2cccnc2)cc2cccnc21 [CBK282691] and print it.
109

###

PROTOCOL: in vitro
CONDITION_PARAMETERS: human, hela cells, % viability
OBSERVABLE: viability at 28.5 h, 10 µM (%)
Numeric answer only, unit % assumed.

Tell me measured viability at 28.5 h, 10 µM for CCCS(=O)(=O)c1ccc2[nH]c(NC(=O)c3cnc(-c4ccccc4)c(-c4ccncc4)c3)nc2c1 [CBK037426] please.
100

Read off the recorded viability at 28.5 h, 10 µM for COc1ccc(NCc2cc3sccc3n2C)cc1OC [CBK283486]
87

Return reported viability at 28.5 h, 10 µM. Input compound: CCOC(=O)c1cnc(SCC(=O)N2c3ccccc3SC3C=CC=CC32)nc1N (centres unmarked) [CBK269029]
99.6

Tell me measured viability at 28.5 h, 10 µM for CC1CC(=O)C2=C(C1)NN=C(c1cccc(C(F)(F)F)c1)C2 (centres unmarked) [CBK020138] please.
86.9

Supply measured viability at 28.5 h, 10 µM of Cn1ncc(N2CCC(CNC(=O)Cc3ccc(O)c(Cl)c3)C2)cc1=O (centres unmarked) [CBK307689] in your reply.
113

Further cases:
Please indicate viability at 28.5 h, 10 µM recorded for C=CCNC(=O)c1ccc(-c2cccc(N(C)C)c2)nc1NCc1cccnc1 [CBK076566]
91.3

Hello, please tell me recorded viability at 28.5 h, 10 µM for this one: COc1ccc(NC(=O)CSc2nsc(SCC(=O)Nc3ccc(OC)cc3)n2)cc1 [CBK008918]
92.5

Please indicate viability at 28.5 h, 10 µM recorded for c1cc(CCNc2nccn3ccnc23)ccn1 [CBK037976]
99.2

Entry Cc1cnc(NCC2(CO)CCOCC2)nc1N(C)C [CBK307026] needs its viability at 28.5 h, 10 µM filled in; supply it.
104

Please give the documented viability at 28.5 h, 10 µM of COc1ccccc1NC(=O)c1sc2nc(N3CCOCC3)c3c(c2c1N)CCCC3 [CBK269247]
103

Name the recorded viability at 28.5 h, 10 µM of the compound listed here: O=C(Nc1nccs1)c1c(O)n(Cc2ccccc2)c2ccccc2c1=O [CBK291173]
96.6

Give viability at 28.5 h, 10 µM for the following compound: CCc1nccn1C(C)C(=O)Nc1ccc2ncn(C)c2c1 (centres unmarked) [CBK281745]
107

Tell me its viability at 28.5 h, 10 µM given Cc1cc2nc(-c3ccccc3)[nH]c2cc1C [CBK086484] as the entry.
80.1

Respond only with viability at 28.5 h, 10 µM recorded for COC(=O)c1ccsc1NS(=O)(=O)c1ccc(Br)cc1 [CBK039058]
94.1

Using the record for CC(=O)NC(CSc1cc(C)nc2ccccc12)C(=O)O (centres unmarked) [CBK286755] , state its measured viability at 28.5 h, 10 µM.
87.4

Give the value of viability at 28.5 h, 10 µM reported for the following: CC1(C)CC(=O)C2=C(C1)c1onc(N)c1C2Cc1ccccc1 (centres unmarked) [CBK269206]
110

Retrieve viability at 28.5 h, 10 µM measured for Cc1noc(C)c1C(=O)NCCc1ccc(S(N)(=O)=O)cc1 [CBK268143] and print it.
104
